Target: Butyrophilin subfamily 3 member A1 (Homo sapiens, UniProt O00481)
Assay: Binding affinity to BTN3A1 in human PBMC-derived Vgamma9/Vdelta2 T cells
Format: tissue-based, Vgamma9Vdelta2 T cell
Sequence (O00481 whole entry): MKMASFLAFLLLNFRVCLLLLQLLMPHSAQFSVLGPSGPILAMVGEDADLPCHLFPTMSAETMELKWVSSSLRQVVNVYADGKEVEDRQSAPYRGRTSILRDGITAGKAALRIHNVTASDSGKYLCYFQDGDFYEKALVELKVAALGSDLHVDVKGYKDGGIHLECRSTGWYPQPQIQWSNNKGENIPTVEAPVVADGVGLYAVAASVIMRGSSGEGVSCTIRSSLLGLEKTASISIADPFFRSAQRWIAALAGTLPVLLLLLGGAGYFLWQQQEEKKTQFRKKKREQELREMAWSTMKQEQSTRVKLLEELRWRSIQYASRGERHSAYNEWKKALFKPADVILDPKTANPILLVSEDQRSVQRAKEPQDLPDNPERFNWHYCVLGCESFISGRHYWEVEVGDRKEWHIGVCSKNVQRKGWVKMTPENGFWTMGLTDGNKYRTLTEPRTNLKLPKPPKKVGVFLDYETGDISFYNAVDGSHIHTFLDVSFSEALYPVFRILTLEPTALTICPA
readout_name: pEC50
Give only the number. pEC50 is defined as minus log10 of concentration in molar units.

What the record says about O=P(O)(O)C(O)(Cc1cccnc1)P(=O)(O)O : pEC50 is 7.10

---

Biological target: Butyrophilin subfamily 3 member A1 (Homo sapiens, UniProt O00481)
Test: Binding affinity to BTN3A1 in human PBMC-derived Vgamma9/Vdelta2 T cells assessed as increase in CD69/CD25 level incubated for overnight by flow cytometric analysis
Type: tissue-based, Vgamma9Vdelta2 T cell
pEC50: −log10 of the molar value.
Short version: pEC50 at least 8 is 1.0, less is 0.0.

>>> print(df.to_string())
                                   compound  label_value
0  C/C(=C\CC(F)(F)P(=O)(N[C@@H](C)C(=O)OC(C)C)Oc1ccccc1)CO (some centres not stated)          1.0
1  COC(=O)[C@H](C)NP(=O)(Oc1ccccc1)C(F)(F)C/C=C(\C)CO (some centres not stated)          1.0
2  COC(=O)[C@H](C)NP(=O)(CC/C=C(\C)CO)Oc1ccccc1 (some centres not stated)          1.0
3  C/C(=C\CCP(=O)(N[C@@H](C)C(=O)OC(C)(C)C)Oc1ccccc1)CO (some centres not stated)          0.0
4  C/C(=C\CC(F)(F)P(=O)(N[C@@H](C)C(=O)OC(C)(C)C)Oc1ccccc1)CO (some centres not stated)          0.0

Q) Assess whether reported pEC50 for O=P(O)(O)C(O)(Cn1ccnc1)P(=O)(O)O [ZOLEDRONIC ACID] sits at 8 or higher.
A) 0.0

Q) Could you verify whether the entry C/C(=C\CCP(=O)(N[C@@H](C)C(=O)OC(C)C)Oc1ccccc1)CO (some centres not stated) shows pEC50 of no less than 8?
A) 1.0

---

Experiment: Half life in human serum at 5 mg and measured up to 12 hrs by 31PNMR analysis
Type: ADME, cell-free
readout_name: half-life

Lab note: measured half-life of C/C(=C\COP(=O)(O)OP(=O)(O)O)CO was > 12 h

---

Target: UniProt O00481
Assay: Binding affinity to BTN3A1 in human PBMC-derived Vgamma9/Vdelta2 T cells assessed as induction of Vgamma9/Vdelta2 T cell mediated T-24 cell lysis co-expressing GFP at 10 pM preincubated 4 hrs followed by compound washout and subsequent Vgamma9Vdelta2 T cell addition at 1:1 effector/target ratio and measured after 18 hrs by fluorescence based assay
Format: tissue-based
Sequence (O00481 30-513 limits assumed): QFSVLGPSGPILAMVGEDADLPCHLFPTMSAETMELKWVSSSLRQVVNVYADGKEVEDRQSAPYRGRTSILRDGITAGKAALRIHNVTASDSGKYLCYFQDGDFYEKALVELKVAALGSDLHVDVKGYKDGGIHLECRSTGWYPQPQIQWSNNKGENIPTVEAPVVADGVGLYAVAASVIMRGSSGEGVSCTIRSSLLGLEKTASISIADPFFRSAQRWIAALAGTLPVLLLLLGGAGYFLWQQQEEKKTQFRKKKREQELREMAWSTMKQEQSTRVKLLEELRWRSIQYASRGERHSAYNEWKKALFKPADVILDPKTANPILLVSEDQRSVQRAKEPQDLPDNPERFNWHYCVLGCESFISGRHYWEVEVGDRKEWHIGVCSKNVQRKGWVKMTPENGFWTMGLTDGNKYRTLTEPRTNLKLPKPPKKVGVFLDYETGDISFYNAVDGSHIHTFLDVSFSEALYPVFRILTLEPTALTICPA
Activity calls are given as the source filed them. No cut-off for these calls is given here.
readout_name: Activity

Known Activity results, listed for orientation:
In [3]: df
Out[3]:
                                   molecule     target_desc  readout_name  result
0            C/C(=C\COP(=O)(O)OP(=O)(O)O)CO  UniProt O00481      Activity  Active
1  C/C(=C\CC(F)(F)P(=O)(N[C@@H](C)C(=O)OC(C)(C)C)Oc1ccccc1)CO (stereo not given in full)  UniProt O00481      Activity  Active
2  C/C(=C\CC(F)(F)P(=O)(N[C@@H](C)C(=O)OCc1ccccc1)Oc1ccccc1)CO (stereo not given in full)  UniProt O00481      Activity  Active
3  C/C(=C\CCP(=O)(N[C@@H](C)C(=O)OC(C)(C)C)Oc1ccccc1)CO (stereo not given in full)  UniProt O00481      Activity  Active

Below: the item to evaluate.
Entry C/C(=C\CCP(=O)(N[C@@H](C)C(=O)OCc1ccccc1)Oc1ccccc1)CO (stereo not given in full) — recorded Activity = Active

src = ChEMBL document CHEMBL4665810
